- method: Cytotoxicity against human Huh-7 cells assessed as reduction in cell viability by CCK8 assay relative to control
- Type: toxicity, cell-based
Output true for records whose CC50 is lower than 30 µM, false for records at or above 30 µM.

# compound, group-label
data = [
    ("O=C(/C=C/c1ccccc1F)N1CCN(C(c2ccc(F)cc2)c2ccc(F)cc2)CC1", "false"),
    ("O=c1cc(-c2ccccc2)oc2cc(O)c(O)c(O)c12 [BAICALEIN]", "false"),
    ("O=C(/C=C/c1ccccc1F)N1CCN(C(c2ccccc2)c2ccccc2)CC1", "false"),
    ("O=C(/C=C/c1cccc(F)c1)N1CCN(C(c2ccc(F)cc2)c2ccc(F)cc2)CC1", "true"),
    ("COc1ccc(CN2CCN(C(c3ccc(F)cc3)c3ccc(F)cc3)CC2)c(OC)c1OC [LOMERIZINE]", "false"),
    ("O=C(/C=C/c1ccncc1)N1CCN(C(c2ccc(F)cc2)c2ccc(F)cc2)CC1", "false"),
    ("O=C(/C=C/c1cccnc1)N1CCN(C(c2ccc(F)cc2)c2ccc(F)cc2)CC1", "true"),
    ("O=C(/C=C/c1ccc2c(c1)OCO2)N1CCN(C(c2ccccc2)c2ccc(Cl)cc2)CC1 (centres undefined)", "false"),
]
